- Tested on: SK-MEL-2 melanoma
- protocolDetails: NCI tumour cell line growth inhibition, 48 h; in the data active means GI50 below about 0.43 µM; inactive means the rest
Write down the outcome that applies. Available outcomes: true (active), false (inactive)

The following molecules have reported results that may help.
# molecule, classAssignment
measured = [
    ("CCSC[C@@H]1C[C@](O)(c2ccc(Cl)cc2)[C@@H](c2ccc(Cl)cc2)O1", "false"),
    ("CCOC(=O)C(=Cc1ccc(C#N)cc1)C(=O)OCC", "false"),
    ("Cc1ccc(CNc2ccc3nc(CCC4CCCCC4)[nH]c3c2)cc1", "false"),
    ("COc1cc2nc(N3CCCN(C)CC3)nc(NC3CCN(Cc4ccccc4)CC3)c2cc1OC", "false"),
    ("COc1cc(-n2ccnc2-c2ccc3ccccc3c2)cc(OC)c1OC", "true"),
]

Lookup: Returns: the outcome recorded for CSc1ccc(C2=NN(C(C)=O)C(c3ccc(-c4cc(Cl)c(Cl)cc4Cl)o3)C2)cc1 (stereo not drawn) in this assay.
Found: false

Lookup: Kindly provide the recorded test outcome for the following molecule: O=C(O)Cc1cccc2c(=O)cc(-c3ccccc3)oc12
Found: false

Lookup: Would you mind telling me which call this test gave Fc1cccc(COc2ccc(Nc3ncnc4onc(-c5ccccc5)c34)cc2)c1 ?
Found: true

Lookup: For FC1(F)ON2CCc3ccccc3C2[C@H]1c1ccccc1 (stereo partly drawn) , what call appears in the results of this test?
Found: false

Lookup: For CC1=C(C#N)C23C(=O)N(c4ccccc4)C(=O)C2=C(O)C=CC3(O)N1Cc1ccc(Cl)cc1Cl (stereo not drawn) , what call appears in the results of this test?
Found: false

Lookup: Please state the recorded outcome for this molecule: COc1ccc2c(c1)CCC1C2CC[C@@]2(C)C1CC[C@@H]2NC(=O)Cc1ccc(O)c(O)c1 (stereo partly drawn)
Found: false

Lookup: // return assay outcome for CCC1=C(c2ccc(OC)cc2)C(C)(C)Oc2c1ccc(O)c2CN1CCCC1
Found: false

Lookup: Per the assay record, what outcome was assigned to Oc1ccccc1-c1nn(CNc2ccc(Cl)cc2)c(=S)o1 ?
Found: false
